assayName: Drug recovery in healthy human urine at 1500 mg, iv infusion for 1 hr as single dose after 120 to 336 hrs by HPLC method
Format: ADME, organism-based
conditionContext: in the assay text read “0 to 120 hrs” for “120 to 336 hrs”, read-out: Drug recovery
readout: dose excreted
State the result as a value with its unit after it.

Entry `Cl.N[14CH2][C@H]1OB(O)c2c(OCCCO)cccc21` — recorded dose excreted = 28.9%

----------
assayName: Drug recovery in healthy human feces at 1500 mg, iv infusion for 1 hr as single dose after 288 hrs
Assay type: ADME, organism-based
conditionContext: faeces, read-out: Drug recovery
readout: dose excreted at 288 h (%)
The reply should contain only the number, in %.

Entry `Cl.N[14CH2][C@H]1OB(O)c2c(OCCCO)cccc21` — recorded dose excreted at 288 h = 7.6

----------
assayName: Drug recovery in healthy human urine at 1500 mg, iv infusion for 1 hr as single dose after 168 hrs
Type: ADME, organism-based
conditionContext: read-out: Drug recovery
readout: dose excreted at 168 h (%)
The reply should contain only the number, in %.

Entry `Cl.N[14CH2][C@H]1OB(O)c2c(OCCCO)cccc21` — recorded dose excreted at 168 h = 86.4

----------
assayName: Clearance in cynomolgus monkey at 35 mg/kg, iv administered as single infusion for 1 hr
Format: ADME, organism-based, Macaca fascicularis
Design: dose 35 mg/kg, route intravenous
conditionContext: in vivo
readout: clearance
State the result as a value with its unit after it.

Entry `Cl.NC[C@H]1OB(O)c2c(OCCCO)cccc21` — recorded clearance = 10 mL/min/kg

----------
assayName: Total drug recovery in healthy human at 1500 mg, iv infusion for 1 hr as single dose after 48 hrs
Assay type: ADME, organism-based
conditionContext: in vivo, read-out: Drug recovery
readout: dose excreted at 48 h (%)
The reply should contain only the number, in %.

Entry `Cl.N[14CH2][C@H]1OB(O)c2c(OCCCO)cccc21` — recorded dose excreted at 48 h = 70.5

Numbers sourced from ChEMBL document CHEMBL3526029.
